Each recorded value in this set is attributed to patent US20240067748A1.

# Lookup of reported ADCP (Donor A19143143#) Maximum phagocytosis % keyed by entry
subject-of-test: T1, human Trop2 on cells (human, UniProt P09758 27-323)
T1 sequence (looked up): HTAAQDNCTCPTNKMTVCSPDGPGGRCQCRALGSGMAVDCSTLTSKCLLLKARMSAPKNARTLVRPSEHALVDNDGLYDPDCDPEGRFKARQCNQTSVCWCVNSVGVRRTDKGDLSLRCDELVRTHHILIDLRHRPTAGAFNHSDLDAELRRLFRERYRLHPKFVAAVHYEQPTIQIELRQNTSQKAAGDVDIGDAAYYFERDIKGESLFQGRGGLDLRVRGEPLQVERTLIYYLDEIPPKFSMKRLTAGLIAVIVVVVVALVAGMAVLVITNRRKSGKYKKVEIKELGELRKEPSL
test-method-notes: cell-based or functional assay
# unit: % | format: bare number

// known answers, use as guide
>  <binder>
PR001166 (antibody, human IgG1, kappa, V domains shown, fully human IgG1/kappa; also called antibody No. (27)) VH: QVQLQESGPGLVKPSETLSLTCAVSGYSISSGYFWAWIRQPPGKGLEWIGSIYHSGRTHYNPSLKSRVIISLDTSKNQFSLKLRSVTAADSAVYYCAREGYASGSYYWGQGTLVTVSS VL: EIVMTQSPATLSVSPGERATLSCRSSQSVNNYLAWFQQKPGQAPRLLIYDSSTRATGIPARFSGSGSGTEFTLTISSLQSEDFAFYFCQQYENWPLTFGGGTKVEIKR

>  <unit-abbreviation>
%

>  <reported-measurement>
40.2

$$$$
>  <binder>
PR001142 (antibody, human IgG1, kappa, V domains shown, fully human IgG1/kappa; also called antibody No. (9)) VH: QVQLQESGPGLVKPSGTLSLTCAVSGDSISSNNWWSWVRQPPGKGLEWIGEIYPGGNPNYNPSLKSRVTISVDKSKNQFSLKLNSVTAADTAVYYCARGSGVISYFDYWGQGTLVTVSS VL: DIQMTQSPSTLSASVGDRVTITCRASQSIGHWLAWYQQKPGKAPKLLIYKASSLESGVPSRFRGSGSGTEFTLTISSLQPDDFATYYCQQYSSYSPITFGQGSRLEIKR

>  <unit-abbreviation>
%

>  <reported-measurement>
36.4

$$$$

Asked: Value lookup for ADCP (Donor A19143143#) Maximum phagocytosis %; key = comparative example 2 antibody Tab (hRS7) (antibody, human IgG1, kappa, V domains shown, prepared on the basis of sacituzumab govitecan (ChemPartner, #T07-001); naked antibody) VH: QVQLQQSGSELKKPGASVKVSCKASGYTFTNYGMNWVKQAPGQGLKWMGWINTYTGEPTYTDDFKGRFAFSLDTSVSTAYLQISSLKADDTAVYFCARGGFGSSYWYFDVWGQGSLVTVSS VL: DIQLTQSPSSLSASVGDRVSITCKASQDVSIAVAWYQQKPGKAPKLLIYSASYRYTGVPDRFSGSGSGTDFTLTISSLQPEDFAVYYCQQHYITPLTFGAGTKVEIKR
Given back: 44.8
